- System: HCT116;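 also: Luminescence-based viability readout, five doses per compound, normalized against on-plate DMSO and empty-well controls, followed by dose-response curve fitting for every drug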
- Test Summary: efficacy (fitted maximal change in viability relative to DMSO control); higher = less cytotoxic (negative = loss of viability)
- Run Parameters: 48 h
Assign label 1 to entries whose efficacy meets or exceeds -30%; assign label 0 to the rest.

For this compound, is measured efficacy -30% or higher? COc1cccc(Nc2ncnn3ccc(CN4CC[C@@H](N)[C@H](O)C4)c23)c1
label 0

For this compound, is measured efficacy -30% or higher? Cc1ccc(NC(=O)c2ccc(CN3CC[C@H](N(C)C)C3)c(C(F)(F)F)c2)cc1Nc1nccc(-c2cncnc2)n1 [Bafetinib (INNO-406)]
label 0

For this compound, is measured efficacy -30% or higher? CN(C)Cc1cccc(N/C(=C2\C(=O)Nc3cc(C(=O)N(C)C)ccc32)c2ccccc2)c1
label 0

For this compound, is measured efficacy -30% or higher? NC(=O)c1ccccc1Nc1ccnc(Nc2cccc(O)c2)n1
label 0

For this compound, is measured efficacy -30% or higher? COc1cc2ncn(-c3cc(OCc4ccccc4C(F)(F)F)c(C(N)=O)s3)c2cc1OC
label 0

For this compound, is measured efficacy -30% or higher? Nc1ncnc(Nc2ccc(OCc3ccccc3)c(Cl)c2)c1/C=N/OCCN1CCOCC1
label 0

For this compound, is measured efficacy -30% or higher? C[C@@H](c1ncncc1F)[C@](O)(Cn1cncn1)c1ccc(F)cc1F [Voriconazole]
label 1

For this compound, is measured efficacy -30% or higher? C=C[C@H]1CN2CC[C@H]1C[C@H]2[C@H](O)c1ccnc2ccc(OC)cc12
label 0

For this compound, is measured efficacy -30% or higher? O=C(C[C@@H]1C/C=C\CCC(=O)O[C@H](c2ccccc2)CNC1=O)NCc1ccc(Cl)cc1 [Robotnikinin]
label 1
